observed_property: pIC50
Would you please state pIC50, meaning minus log10 of the concentration in mol/L, as a bare number?

[in] Supply pIC50 measured with SHV-1 (Klebsiella pneumoniae, UniProt P0AD64) for O=C(CN1C(=O)c2ccccc2S1(=O)=O)c1ccc(O)c(O)c1 .
Sequence (P0AD64 22-286): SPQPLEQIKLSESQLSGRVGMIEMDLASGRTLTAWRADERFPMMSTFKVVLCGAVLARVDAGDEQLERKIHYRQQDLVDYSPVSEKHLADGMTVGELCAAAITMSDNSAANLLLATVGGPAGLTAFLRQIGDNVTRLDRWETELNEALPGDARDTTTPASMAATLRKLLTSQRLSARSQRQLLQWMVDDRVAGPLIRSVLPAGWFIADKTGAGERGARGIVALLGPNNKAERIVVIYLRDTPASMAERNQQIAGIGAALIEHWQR
[out] 9.19

[in] Report pIC50 from SHV-1 (Klebsiella pneumoniae, UniProt P0AD64) testing of O=C(c1ccccc1)C1CCN(C(=O)CN2C(=O)c3ccccc3C2=O)CC1
[out] 9.23

[in] Please indicate recorded pIC50 of O=C(O)c1ccccc1C(=O)N1CCN(c2nc(-c3ccccc3)ns2)CC1 measured with SHV-1 (Klebsiella pneumoniae, UniProt P0AD64).
[out] 9.18
